Source of measurements: PubChem BioAssay (NCI)

system: ACHN renal; assay: NCI-60 one-dose screen, 48 h (100 = growth as untreated, 0 = no growth, -100 = all killed); conditions: 10 µM unless noted
About 83,000 compounds went through this panel and 20% of them were active in at least one assay; those are over-represented in the sample as a whole.
measured endpoint: growth (%)
// note: answer is a bare numeric in %

Examples with their reported growth follow.
Checklist item: growth tested on ACHN renal, entry `CCOC(=O)C(C(=O)OCC)C1CCCCC1` , value?
102

Checklist item: growth tested on ACHN renal, entry `O=C1Nc2ccc(C(=O)O)c(O)c2C1=O` , value?
104

Checklist item: growth tested on ACHN renal, entry `c1ccc2nc(Cn3c[n+](Cc4ccc5ccccc5n4)c4ccccc43)ccc2c1` , value?
103

Checklist item: growth tested on ACHN renal, entry `COc1ccc2ncccc2c1Cc1c(OC)ccc2ncccc12` , value?
86.1

Checklist item: growth tested on ACHN renal, entry `O=C(/C=C/c1cccc(O)c1)c1cccc(-n2cc(-c3ccccc3)[nH]c2=O)c1` , value?
-75.8

Further cases:
Checklist item: growth tested on ACHN renal, entry CC(NNC(=S)N1CCCCCC1)c1ccc2ccccc2n1 (stereo not given) , value?
16.7

Checklist item: growth tested on ACHN renal, entry COc1ccc(C2CC(c3ccc4c(c3)OCO4)=NN2C=O)cc1 (stereo not given) , value?
103

Checklist item: growth tested on ACHN renal, entry CC1Cc2ccccc2N1C(=O)c1ccc(C(=O)c2ccccc2)cc1 (stereo not given) , value?
89.7

Checklist item: growth tested on ACHN renal, entry `CCN(CC)CCNCC(=O)Oc1ccc(/C=C/C(=O)CC(=O)/C=C/c2ccc(OC(=O)CNCCN(CC)CC)c(OC)c2)cc1OC` , value?
16.8

Checklist item: growth tested on ACHN renal, entry `O=C(Nc1nc(-c2ccc(Cl)cc2)cs1)c1cc(-c2ccc(Br)cc2)nc2ccc(Cl)cc12` , value?
63.6

====

system: OVCAR-3 ovarian; test: NCI-60 one-dose screen, 48 h; conditions: 10 µM unless noted
About 83,000 compounds went through this panel and 20% of them were active in at least one assay; those are over-represented in the sample as a whole. Activity calls are given as the source filed them. Rule for the calls: active = growth percent below 10; inactive = the rest.
Give one outcome, nothing more. List: active, inactive

Observe how each entry below is paired with its result.
Per the records of this test, what outcome belongs to `NS(=O)(=O)c1ccc(-n2nc(-c3ccc(Br)cc3)ccc2=O)cc1` ?
inactive

Per the records of this test, what outcome belongs to `COc1ccc(-c2cc(-c3cccnc3)nc(S(=O)(=O)CC(=O)Nc3ccc(C)cc3)c2C#N)cc1OC` ?
inactive

Per the records of this test, what outcome belongs to `CCCCN=C(N)c1ccc(OCCSCCOc2ccc(C(N)=NCCCC)cc2)cc1` ?
inactive

Per the records of this test, what outcome belongs to Fc1ccccc1C1c2ccccc2-c2nccn21 (stereo not given) ?
inactive

Per the records of this test, what outcome belongs to COc1cc(C2CC(c3ccc(C)cc3)=NN2C=O)ccc1OCCN(C)C (stereo not given) ?
inactive

Note: attention shifts to another entry.
Per the records of this test, what outcome belongs to `CCOc1cc(/C=C/C(=O)C(C(=O)/C=C/c2ccc(OC(=O)CNc3nc4ccccc4[nH]3)c(OCC)c2)C(=O)CNc2nc3ccccc3[nH]2)ccc1OC(=O)CNc1nc2ccccc2[nH]1` ?
active
